All values here come from patent US8435981B2.

Reported IC50 values for the following molecules.
test_system: Met kinase (Homo sapiens)
Sequence (P08581 974-1390 limits assumed): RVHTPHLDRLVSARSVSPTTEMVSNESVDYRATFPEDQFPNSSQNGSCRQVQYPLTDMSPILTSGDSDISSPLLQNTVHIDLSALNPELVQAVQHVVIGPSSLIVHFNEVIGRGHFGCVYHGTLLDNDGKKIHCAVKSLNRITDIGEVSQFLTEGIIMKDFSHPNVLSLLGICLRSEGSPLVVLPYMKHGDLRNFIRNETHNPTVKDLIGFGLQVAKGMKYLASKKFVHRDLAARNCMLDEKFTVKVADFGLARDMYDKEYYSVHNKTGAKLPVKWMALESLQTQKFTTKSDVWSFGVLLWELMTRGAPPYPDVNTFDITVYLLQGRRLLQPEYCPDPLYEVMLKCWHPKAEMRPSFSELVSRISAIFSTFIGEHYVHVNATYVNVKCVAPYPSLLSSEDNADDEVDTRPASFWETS
procedure_details: Met kinase inhibition, enzyme assay (flashplate method)
Format: biochemical
Set-up: 6His (N); purchased Upstate 14-526; host or cells: Sf21 insect cells (S. frugiperda), baculovirus

Cc1nc(-c2cccc(Cn3nc(-c4cc(F)cc(F)c4)ccc3=O)c2)no1	0.01 to 1 µM
CN1CCN(c2nc(-c3cccc(Cn4nc(-c5cc(F)cc(F)c5)ccc4=O)c3)no2)CC1	0.01 to 1 µM
CN1CCN(C(=O)c2nc(-c3cccc(Cn4nc(-c5cc(F)cc(F)c5)ccc4=O)c3)no2)CC1	0.01 to 1 µM
O=c1ccc(-c2cc(F)cc(F)c2)nn1Cc1cccc(-c2noc(NCCN3CCOCC3)n2)c1	0.01 to 1 µM
CN(C)CCCNc1nc(-c2cccc(Cn3nc(-c4cc(F)cc(F)c4)ccc3=O)c2)no1	0.01 to 1 µM

query: What IC50 value was documented for this molecule, CN1CCC(c2cnc(-c3cccc(Cn4nc(-c5cc(F)cc(F)c5)ccc4=O)c3)o2)CC1 ?
result: 0.01 to 1 µM

query: What IC50 value was documented for this molecule, COCCN1CCN(c2nc(-c3cccc(Cn4nc(-c5cc(F)cc(F)c5)ccc4=O)c3)no2)CC1 ?
result: 0.01 to 1 µM

query: What IC50 value was documented for this molecule, O=c1ccc(-c2cc(F)cc(F)c2)nn1Cc1cccc(-c2ncc(C3CCNCC3)s2)c1 ?
result: 0.01 to 1 µM

query: What IC50 value was documented for this molecule, CCNc1nc(-c2cccc(Cn3nc(-c4cc(F)cc(F)c4)ccc3=O)c2)no1 ?
result: 0.01 to 1 µM

query: What IC50 value was documented for this molecule, CCN1CCN(c2nc(-c3cccc(Cn4nc(-c5cc(F)cc(F)c5)ccc4=O)c3)no2)CC1 ?
result: 0.01 to 1 µM

query: What IC50 value was documented for this molecule, Cc1cnc(-c2cccc(Cn3nc(-c4cccc(Cl)c4)ccc3=O)c2)o1 ?
result: 0.01 to 1 µM

query: What IC50 value was documented for this molecule, CN1CCC(N(C)c2nc(-c3cccc(Cn4nc(-c5cc(F)cc(F)c5)ccc4=O)c3)no2)CC1 ?
result: 0.01 to 1 µM
